System: Mycobacterium tuberculosis Erdman (autoluminescent)
Assay: GRinf, maximum normalised growth rate inhibition (three-drug combination) (unitless (-1 to 1)); higher = less effect (negative = killing)
Conditions: in vitro model: dormancy (butyrate + nitrate, low O2); time point: constant (~7 days, model-specific)
QUANTITY MEASURED: GRinf

Sample records with GRinf:
COMPOUND	STUDY TARGET	GRinf
CC(=O)NC[C@H]1CN(c2ccc(N3CCOCC3)c(F)c2)C(=O)O1 [linezolid] + NC(=O)c1cnccn1 [pyrazinamide] + CO[C@H]1/C=C/O[C@@]2(C)Oc3c(C)c(O)c4c(O)c(c(/C=N/N5CCN(C6CCCC6)CC5)c(O)c4c3C2=O)NC(=O)/C(C)=C\C=C\[C@H](C)[C@H](O)[C@@H](C)[C@@H](O)[C@@H](C)[C@H](OC(C)=O)[C@@H]1C [rifapentine]	Mycobacterium tuberculosis Erdman (autoluminescent)	0.245
COc1nc2ccc(Br)cc2cc1[C@@H](c1ccccc1)[C@@](O)(CCN(C)C)c1cccc2ccccc12 [bedaquiline] + CC(=O)NC[C@H]1CN(c2ccc(N3CCOCC3)c(F)c2)C(=O)O1 [linezolid] + O=[N+]([O-])c1cn2c(n1)OC[C@@H](OCc1ccc(OC(F)(F)F)cc1)C2 [pretomanid]	Mycobacterium tuberculosis Erdman (autoluminescent)	0.23
CC[C@@H](CO)NCCN[C@@H](CC)CO [ethambutol] + NNC(=O)c1ccncc1 [isoniazid] + NC(=O)c1cnccn1 [pyrazinamide]	Mycobacterium tuberculosis Erdman (autoluminescent)	0.394
CC(C)/N=c1\cc2n(-c3ccc(Cl)cc3)c3ccccc3nc-2cc1Nc1ccc(Cl)cc1 [clofazimine] + NC(=O)c1cnccn1 [pyrazinamide] + CO[C@H]1/C=C/O[C@@]2(C)Oc3c(C)c(O)c4c(O)c(c(/C=N/N5CCN(C6CCCC6)CC5)c(O)c4c3C2=O)NC(=O)/C(C)=C\C=C\[C@H](C)[C@H](O)[C@@H](C)[C@@H](O)[C@@H](C)[C@H](OC(C)=O)[C@@H]1C [rifapentine]	Mycobacterium tuberculosis Erdman (autoluminescent)	0.0852
NNC(=O)c1ccncc1 [isoniazid] + O=[N+]([O-])c1cn2c(n1)OC[C@@H](OCc1ccc(OC(F)(F)F)cc1)C2 [pretomanid] + NC(=O)c1cnccn1 [pyrazinamide]	Mycobacterium tuberculosis Erdman (autoluminescent)	0.238
COc1nc2ccc(Br)cc2cc1[C@@H](c1ccccc1)[C@@](O)(CCN(C)C)c1cccc2ccccc12 [bedaquiline] + O=[N+]([O-])c1cn2c(n1)OC[C@@H](OCc1ccc(OC(F)(F)F)cc1)C2 [pretomanid] + CO[C@H]1/C=C/O[C@@]2(C)Oc3c(C)c(O)c4c(O)c(c(/C=N/N5CCN(C)CC5)c(O)c4c3C2=O)NC(=O)/C(C)=C\C=C\[C@H](C)[C@H](O)[C@@H](C)[C@@H](O)[C@@H](C)[C@H](OC(C)=O)[C@@H]1C [rifampicin]	Mycobacterium tuberculosis Erdman (autoluminescent)	0.255
NNC(=O)c1ccncc1 [isoniazid] + COc1c(N2C[C@@H]3CCCN[C@@H]3C2)c(F)cc2c(=O)c(C(=O)O)cn(C3CC3)c12 [moxifloxacin] + NC(=O)c1cnccn1 [pyrazinamide]	Mycobacterium tuberculosis Erdman (autoluminescent)	0.245
O=[N+]([O-])c1cn2c(n1)OC[C@@H](OCc1ccc(OC(F)(F)F)cc1)C2 [pretomanid] + NC(=O)c1cnccn1 [pyrazinamide] + CO[C@H]1/C=C/O[C@@]2(C)Oc3c(C)c(O)c4c(O)c(c(/C=N/N5CCN(C6CCCC6)CC5)c(O)c4c3C2=O)NC(=O)/C(C)=C\C=C\[C@H](C)[C@H](O)[C@@H](C)[C@@H](O)[C@@H](C)[C@H](OC(C)=O)[C@@H]1C	Mycobacterium tuberculosis Erdman (autoluminescent)	0.197
CC(C)/N=c1\cc2n(-c3ccc(Cl)cc3)c3ccccc3nc-2cc1Nc1ccc(Cl)cc1 [clofazimine] + CC(=O)NC[C@H]1CN(c2ccc(N3CCOCC3)c(F)c2)C(=O)O1 [linezolid] + CO[C@H]1/C=C/O[C@@]2(C)Oc3c(C)c(O)c4c(O)c(c(/C=N/N5CCN(C)CC5)c(O)c4c3C2=O)NC(=O)/C(C)=C\C=C\[C@H](C)[C@H](O)[C@@H](C)[C@@H](O)[C@@H](C)[C@H](OC(C)=O)[C@@H]1C [rifampicin]	Mycobacterium tuberculosis Erdman (autoluminescent)	0.229
CC(C)/N=c1\cc2n(-c3ccc(Cl)cc3)c3ccccc3nc-2cc1Nc1ccc(Cl)cc1 [clofazimine] + O=[N+]([O-])c1cn2c(n1)OC[C@@H](OCc1ccc(OC(F)(F)F)cc1)C2 [pretomanid] + CO[C@H]1/C=C/O[C@@]2(C)Oc3c(C)c(O)c4c(O)c(c(/C=N/N5CCN(C)CC5)c(O)c4c3C2=O)NC(=O)/C(C)=C\C=C\[C@H](C)[C@H](O)[C@@H](C)[C@@H](O)[C@@H](C)[C@H](OC(C)=O)[C@@H]1C [rifampicin]	Mycobacterium tuberculosis Erdman (autoluminescent)	0.038

Consider the compound shown here: COc1c(N2C[C@@H]3CCCN[C@@H]3C2)c(F)cc2c(=O)c(C(=O)O)cn(C3CC3)c12 [moxifloxacin] + O=[N+]([O-])c1cn2c(n1)OC[C@@H](OCc1ccc(OC(F)(F)F)cc1)C2 [pretomanid] + CO[C@H]1/C=C/O[C@@]2(C)Oc3c(C)c(O)c4c(O)c(c(/C=N/N5CCN(C6CCCC6)CC5)c(O)c4c3C2=O)NC(=O)/C(C)=C\C=C\[C@H](C)[C@H](O)[C@@H](C)[C@@H](O)[C@@H](C)[C@H](OC(C)=O)[C@@H]1C What is its recorded GRinf?
0.213

Consider the compound shown here: COc1nc2ccc(Br)cc2cc1[C@@H](c1ccccc1)[C@@](O)(CCN(C)C)c1cccc2ccccc12 [bedaquiline] + CC(=O)NC[C@H]1CN(c2ccc(N3CCOCC3)c(F)c2)C(=O)O1 [linezolid] + NC(=O)c1cnccn1 [pyrazinamide] What is its recorded GRinf?
0.268

Values were extracted from the supplement of paper PMC8617591.
